# Tested on: SW48
# PROTOCOL NOTES: Cell proliferation, CCK-8
# Format: cell-based
# DETAILS: Homo sapiens; SW48, CCK8, 48 h
# Protocol: Cell proliferation was evaluated using a Cell Counting Kit-8 (CCK-8) (Dojindo) following the manufacturer's instructions. Briefly, CRC cells were plated in 96-well plates at a density of 5 × 10^3 cells per well. […] Then, a microplate reader (Synergy H4 Hybrid Reader, BioTek) was used to measure the absorbance of the solvent at 450 nm. […] The relative cell proliferation of each treatment group was expressed as the percentage change relative to the positive control group. […]
EXPERIMENTAL ENDPOINT: IC50 (µM)
All answers are understood in µM, so give the number only.

The compound identified as Cc1cc(F)c(Br)cc1NS(=O)(=O)c1ccc(NS(=O)(=O)c2cc(Cl)cc(Cl)c2)cc1CN1CCOC[C@H]1C registered its IC50 at 10.8
